Values from ChEMBL document CHEMBL1134613

molecular target: M-phase inducer phosphatase 2 (Mus musculus, UniProt P30306); assay: Inhibitory activity against cell division cycle 25B; parameters: species or system Saccharomyces cerevisiae
Sequence (P30306 whole entry): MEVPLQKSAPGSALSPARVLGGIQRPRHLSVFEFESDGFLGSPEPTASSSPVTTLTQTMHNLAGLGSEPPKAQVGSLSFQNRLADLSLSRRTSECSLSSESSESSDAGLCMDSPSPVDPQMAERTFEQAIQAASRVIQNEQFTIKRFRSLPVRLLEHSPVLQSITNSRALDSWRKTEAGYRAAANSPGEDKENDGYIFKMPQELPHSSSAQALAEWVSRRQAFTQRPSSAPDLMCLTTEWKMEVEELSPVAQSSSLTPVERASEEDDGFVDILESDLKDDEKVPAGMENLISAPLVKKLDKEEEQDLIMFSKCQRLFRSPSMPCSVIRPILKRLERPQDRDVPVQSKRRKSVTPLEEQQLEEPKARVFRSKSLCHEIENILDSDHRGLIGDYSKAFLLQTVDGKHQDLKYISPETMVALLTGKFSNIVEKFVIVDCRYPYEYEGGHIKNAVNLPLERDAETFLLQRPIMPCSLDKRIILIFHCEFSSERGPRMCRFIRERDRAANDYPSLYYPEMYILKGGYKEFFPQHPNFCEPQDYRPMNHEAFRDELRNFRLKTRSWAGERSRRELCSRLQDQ
pIC50: −log10 of the molar value.
measurement_label: pIC50

As a guide, the following entries are already answered.
CC(C)=CCCC(C)CCOC(=O)C1=C(O)O[C@H](CO)C1=O (stereo partly drawn): < 3.90
CCCCCCCCCCCCCCCC(=O)C1=C(OC)[C@@H](CO)OC1=O: < 3.90

The record that follows has no pIC50 shown yet.
Fill in the recorded pIC50 for this molecule, with M-phase inducer phosphatase 2 (Mus musculus, UniProt P30306) as test system: O=C(OC1CCCCC1)C1=C(O)O[C@H](CO)C1=O
< 3.90
